Recorded Activity for the following molecules
Tested on: HCT-116
Assay: Induction of apoptosis in human HCT116 cells expressing wild type p53 assessed as early apoptotic cells expressing wild type p53 at 20 uM measured after 72 hrs by annexin V-FITC/propidium iodide staining-based flow cytometry analysis (reference value: 8.8 %)
Format: functional
Quick reminder: number only, in %, skip the unit.

1. CC(C)(C)NC(=O)C(c1c(C(=O)O)[nH]c2cc(Cl)ccc12)N(C=O)Cc1ccc(OCCc2ccccc2)cc1 (stereo not given) = 8.1
2. CCOC(=O)c1[nH]c2cc(Cl)ccc2c1C(C(=O)NC(C)(C)C)N(C=O)Cc1ccc(NCc2ccc(Br)cc2)cc1 (stereo not given) = 15.2
3. CC(C)(C)NC(=O)C(c1c(C(=O)O)[nH]c2cc(Cl)ccc12)N(C=O)Cc1ccc(OCc2ccc(Br)cc2)cc1 (stereo not given) = 9.8

-- ask // map CC(C)(C)NC(=O)C(c1c(C(=O)O)[nH]c2cc(Cl)ccc12)N(C=O)Cc1ccc(NCc2ccc(Br)cc2)cc1 (stereo not given) to recorded Activity (system: HCT-116)
-- reply 9.6

-- ask // map COc1ccc(C2=N[C@@H](c3ccc(Cl)cc3)[C@@H](c3ccc(Cl)cc3)N2C(=O)N2CCNC(=O)C2)c(OC(C)C)c1 to recorded Activity (system: HCT-116)
-- reply 26.9

-- ask // map CC(C)(C)NC(=O)C(c1c(C(=O)O)[nH]c2cc(Cl)ccc12)N(C=O)Cc1ccc(OCc2ccc(Cl)c(Cl)c2)cc1 (stereo not given) to recorded Activity (system: HCT-116)
-- reply 10

-- ask // map CCOC(=O)c1[nH]c2cc(Cl)ccc2c1C(C(=O)NC(C)(C)C)N(C=O)Cc1ccc(OCc2ccccc2Br)cc1 (stereo not given) to recorded Activity (system: HCT-116)
-- reply 32.3

-- ask // map CCOC(=O)c1[nH]c2cc(Cl)ccc2c1C(C(=O)NC(C)(C)C)N(C=O)Cc1ccc(OCc2cccc(Cl)c2)cc1 (stereo not given) to recorded Activity (system: HCT-116)
-- reply 21.6

-- ask // map CCOC(=O)c1[nH]c2cc(Cl)ccc2c1C(C(=O)NC(C)(C)C)N(C=O)Cc1ccc(OCCc2ccccc2)cc1 (stereo not given) to recorded Activity (system: HCT-116)
-- reply 46.6

-- ask // map CCOC(=O)c1[nH]c2cc(Cl)ccc2c1C(C(=O)NC(C)(C)C)N(C=O)Cc1ccc(OCc2ccccc2I)cc1 (stereo not given) to recorded Activity (system: HCT-116)
-- reply 6.3

-- ask // map CC(C)(C)NC(=O)C(c1c(C(=O)O)[nH]c2cc(Cl)ccc12)N(C=O)Cc1ccc(OCc2ccccc2I)cc1 (stereo not given) to recorded Activity (system: HCT-116)
-- reply 7.1

----------
System: HCT-116
Assay: Induction of apoptosis in human HCT116 cells expressing wild type p53 assessed as live cells at 20 uM measured after 72 hrs by annexin V-FITC/propidium iodide staining-based flow cytometry analysis (reference value: 83.7 %)
Format: functional
Recorded Activity for the following molecules
Quick reminder: number only, in %, skip the unit.

For orientation, consider the following solved cases.
1) CCOC(=O)c1[nH]c2cc(Cl)ccc2c1C(C(=O)NC(C)(C)C)N(C=O)Cc1ccc(OCc2cccc(Cl)c2)cc1 (configuration not stated) = 34.5
2) CC(C)(C)NC(=O)C(c1c(C(=O)O)[nH]c2cc(Cl)ccc12)N(C=O)Cc1ccc(NCc2ccc(Br)cc2)cc1 (configuration not stated) = 65.6
3) CCOC(=O)c1[nH]c2cc(Cl)ccc2c1C(C(=O)NC(C)(C)C)N(C=O)Cc1ccc(OCCc2ccccc2)cc1 (configuration not stated) = 12.6
4) CC(C)(C)NC(=O)C(c1c(C(=O)O)[nH]c2cc(Cl)ccc12)N(C=O)Cc1ccc(OCc2ccccc2Br)cc1 (racemic) = 69.1
5) CC(C)(C)NC(=O)C(c1c(C(=O)O)[nH]c2cc(Cl)ccc12)N(C=O)Cc1ccc(OCc2cccc(Cl)c2)cc1 (configuration not stated) = 81
6) CC(C)(C)NC(=O)C(c1c(C(=O)O)[nH]c2cc(Cl)ccc12)N(C=O)Cc1ccc(OCc2ccc(Cl)c(Cl)c2)cc1 (configuration not stated) = 81.2

Now examine the next entry.
-- ask GET /values?readout=Activity&item= COc1ccc(C2=N[C@@H](c3ccc(Cl)cc3)[C@@H](c3ccc(Cl)cc3)N2C(=O)N2CCNC(=O)C2)c(OC(C)C)c1 [NUTLIN-3]
-- reply 53

----------
Recorded Activity for the following molecules
System: HCT-116
Test: Induction of apoptosis in human HCT116 cells expressing wild type p53 assessed as early apoptotic cells expressing wild type p53 at 20 uM measured after 72 hrs by annexin V-FITC/propidium iodide staining-based flow cytometry analysis (reference value: 8.8 %)
Assay type: functional
Quick reminder: number only, in %, skip the unit.

For orientation, consider the following solved cases.
1. CCOC(=O)c1[nH]c2cc(Cl)ccc2c1C(C(=O)NC(C)(C)C)N(C=O)Cc1ccc(OCc2ccc(Cl)c(Cl)c2)cc1 (centres undefined) = 27.1
2. CC(C)(C)NC(=O)C(c1c(C(=O)O)[nH]c2cc(Cl)ccc12)N(C=O)Cc1ccc(OCc2ccccc2Br)cc1 (racemic) = 15.4
3. CCOC(=O)c1[nH]c2cc(Cl)ccc2c1C(C(=O)NC(C)(C)C)N(C=O)Cc1ccc(OCc2cccc(OC)c2)cc1 (centres undefined) = 8.3

-- ask GET /values?readout=Activity&item= CCOC(=O)c1[nH]c2cc(Cl)ccc2c1C(C(=O)NC(C)(C)C)N(C=O)Cc1ccc(OCc2ccc(Br)cc2)cc1 (centres undefined)
-- reply 42.7
